Experiment: DAPI mCherry counterscreen qHTS for Zika virus inhibitors; further: nearly all actives have a fitted effect of over 55% in size
Conditions: Vero cells, DAPI nuclear count cytotoxicity, imaging 48-72 h; series mostly up to 32.6 µM
Records with an inconclusive call do not appear. Active and inactive are the calls of the source. The call rests on the fitted dose curve; in most records, active means well fitted cell-killing curve with a large enough effect; inconclusive means small, poorly fitted or top-dose-only effect; inactive means flat fitted curve, though single readings scatter.
Labels: active, inactive

[
  {
    "Molecule": "O=C(O)c1cc(Oc2ccc(C(F)(F)F)cc2Cl)ccc1[N+](=O)[O-]",
    "Label value": "inactive"
  },
  {
    "Molecule": "O=C1C(I)=CC(=C(c2cc(I)c(O)c(I)c2)c2ccccc2C(=O)O)C=C1I",
    "Label value": "active"
  },
  {
    "Molecule": "CC(C)=CCCC1(C)C=Cc2c(O)c3c(c(CC=C(C)C)c2O1)OC12C(=CC4CC1C(C)(C)OC2(C/C=C(/C)C(=O)O)C4O)C3=O (stereo not drawn)",
    "Label value": "active"
  }
]

Data credit: PubChem BioAssay AID1347156
